Give measured inhibition for each item. Keep answers brief.
Target: Tubulin (Homo sapiens) (UniProt P68371+Q9H4B7+P0DPH7+P68366+Q13509+Q71U36+P04350+Q3ZCM7+P07437+P68363+Q9BQE3+Q6PEY2+Q13885+Q9BVA1+Q9BUF5)
Test: Displacement of [3H]-colchicine from tubulin (unknown origin) at 20 uM preincubated for 1 hr followed by radioligand addition measured after 30 mins by competitive binding assay
Assay type: protein-complex assay
Respond with the bare value in %.

Query block: Indicate its recorded inhibition; the compound in question is `COc1ccc(CCn2c(=O)c3ccccc3c3nc4ccccn4c32)cc1`
Result block: 74

Query block: Indicate its recorded inhibition; the compound in question is `COc1ccc(CCn2c(=O)c3ccccc3c3nc4ccc(NCc5ccncc5)cn4c32)cc1`
Result block: 53

Query block: Indicate its recorded inhibition; the compound in question is `COc1ccc(CCn2c(=O)c3ccccc3c3nc4ccc(NCCO)cn4c32)cc1`
Result block: 34

Query block: Indicate its recorded inhibition; the compound in question is `COc1ccc(CCn2c(=O)c3ccccc3c3nc4ccc(NCCCn5ccnc5)cn4c32)cc1`
Result block: 21

Query block: Indicate its recorded inhibition; the compound in question is `COc1ccc(CCn2c(=O)c3ccccc3c3nc4ccc(NCc5cccnc5)cn4c32)cc1`
Result block: 78

Query block: Indicate its recorded inhibition; the compound in question is `CCN(CC)CCNc1ccc2nc3c4ccccc4c(=O)n(CCc4ccc(OC)cc4)c3n2c1`
Result block: 20

Query block: Indicate its recorded inhibition; the compound in question is `COc1ccc(CCn2c(=O)c3ccccc3c3nc4ccc(-n5ccnc5)cn4c32)cc1`
Result block: 36

Query block: Indicate its recorded inhibition; the compound in question is `COc1ccc(CCn2c(=O)c3ccccc3c3nc4ccc(NCc5ccccn5)cn4c32)cc1`
Result block: 22

Query block: Indicate its recorded inhibition; the compound in question is `COc1ccc(CCn2c(=O)c3ccccc3c3nc4ccc(NCCN5CCOCC5)cn4c32)cc1`
Result block: 15
